The measured values listed here are drawn from ChEMBL document CHEMBL5143733.

Quick list: clearance per entry.
# assay-method-text: Clearance in Sprague-Dawley rat at 5 mg/kg, iv measured up to 24 hrs by HPLC analysis
# Format: ADME, organism-based
# settings: in vivo

chemical_structure=CN(C)c1ccc(-c2ccc(CN(C(=O)C3CCCCC3)c3cc(F)cc(/C=C/C(=O)O)c3)cc2C#N)cc1 reported_result="70 mL/min/kg"

INPUT: Identify measured clearance associated with COC(=O)/C=C/c1cc(F)cc(N(Cc2ccc(-c3ccc(N(C)C)cc3)c(C#N)c2)C(=O)C2CCCCC2)c1
OUTPUT: 93.3 mL/min/kg

* * *

# assay-method-text: Half life in Sprague-Dawley rat at 5 mg/kg, iv measured up to 24 hrs by HPLC analysis
# Type: ADME, organism-based
# settings: in vivo
measured-parameter: half-life
// return the numeric value with its unit appended

chemical_structure=CN(C)c1ccc(-c2ccc(CN(C(=O)C3CCCCC3)c3cc(F)cc(/C=C/C(=O)O)c3)cc2C#N)cc1 measured_parameter=half-life reported_result="14.4 min"

Note: attention shifts to another entry.
INPUT: Identify measured half-life associated with COC(=O)/C=C/c1cc(F)cc(N(Cc2ccc(-c3ccc(N(C)C)cc3)c(C#N)c2)C(=O)C2CCCCC2)c1
OUTPUT: 4.8 min

* * *

For reference, pEC50 measured on Bile acid receptor (Homo sapiens):
The value called pEC50 is obtained by taking minus log10 of the concentration in mol/L.

chemical_structure=CC(C)OC(=O)/C=C/c1cccc(N(Cc2ccc(-c3ccc(N(C)C)cc3)c(C#N)c2)C(=O)C2CCCCC2)c1F reported_result=6.05

Note: attention shifts to another entry.
INPUT: Give Bile acid receptor (Homo sapiens) pEC50 for the following molecule: CN(C)c1ccc(-c2ccc(CN(C(=O)C3CCCCC3)c3cccc(/C=C/C(=O)OCF)c3)cc2C#N)cc1
OUTPUT: 5.59

* * *

# assay-method-text: Volume of distribution at steady state in Sprague-Dawley rat at 5 mg/kg, iv measured up to 24 hrs by HPLC analysis
# Assay type: ADME, organism-based
# settings: in vivo, read-out: Vdss
measured-parameter: Vd (L/kg)
Response body: numeric value in L/kg, unit text excluded.

chemical_structure=COC(=O)/C=C/c1cc(F)cc(N(Cc2ccc(-c3ccc(N(C)C)cc3)c(C#N)c2)C(=O)C2CCCCC2)c1 reported_result=0.7

INPUT: Identify measured Vd associated with CN(C)c1ccc(-c2ccc(CN(C(=O)C3CCCCC3)c3cc(F)cc(/C=C/C(=O)O)c3)cc2C#N)cc1
OUTPUT: 1.4
